Subject Of Test: Ephrin type-B receptor 4 (Homo sapiens) (UniProt P54760)
Sequence (whole entry): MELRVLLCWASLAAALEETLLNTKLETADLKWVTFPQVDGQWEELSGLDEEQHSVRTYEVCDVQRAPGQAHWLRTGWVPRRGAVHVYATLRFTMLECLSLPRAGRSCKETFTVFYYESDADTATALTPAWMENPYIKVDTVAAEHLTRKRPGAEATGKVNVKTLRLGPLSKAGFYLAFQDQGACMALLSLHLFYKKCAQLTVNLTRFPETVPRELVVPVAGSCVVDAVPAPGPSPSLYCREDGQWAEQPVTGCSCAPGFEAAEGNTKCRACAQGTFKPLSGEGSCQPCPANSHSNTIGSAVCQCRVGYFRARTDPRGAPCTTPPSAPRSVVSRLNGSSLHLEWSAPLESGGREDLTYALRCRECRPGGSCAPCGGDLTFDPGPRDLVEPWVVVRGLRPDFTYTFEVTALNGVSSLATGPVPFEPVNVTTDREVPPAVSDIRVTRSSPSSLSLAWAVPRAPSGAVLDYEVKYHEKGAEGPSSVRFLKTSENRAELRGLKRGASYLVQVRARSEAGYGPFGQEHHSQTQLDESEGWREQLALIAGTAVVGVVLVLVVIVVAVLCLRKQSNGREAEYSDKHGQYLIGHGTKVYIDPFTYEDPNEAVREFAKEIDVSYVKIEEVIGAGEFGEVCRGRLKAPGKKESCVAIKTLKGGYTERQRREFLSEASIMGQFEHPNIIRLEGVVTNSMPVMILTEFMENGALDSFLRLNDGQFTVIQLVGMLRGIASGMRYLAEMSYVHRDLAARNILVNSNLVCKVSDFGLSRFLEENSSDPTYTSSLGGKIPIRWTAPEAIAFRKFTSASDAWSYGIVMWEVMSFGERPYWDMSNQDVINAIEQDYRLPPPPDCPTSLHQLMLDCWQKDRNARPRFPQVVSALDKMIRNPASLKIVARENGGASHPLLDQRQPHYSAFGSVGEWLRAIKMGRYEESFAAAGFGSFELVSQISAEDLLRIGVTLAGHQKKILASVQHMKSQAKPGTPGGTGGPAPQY
Assay Context: at 1 µM;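 further: reported value is the mean percent inhibition of EPHB4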
Endpoint Name: inhibition (%)
The reply should contain only the number, in %.

Here's what some known entries look like.
c1ccc(-c2n[nH]cc2-c2ccnc(-c3ccc(OCCN4CCOCC4)cc3)c2)nc1; 0.63
C/C(Nc1ccc(S(N)(=O)=O)cc1)=C1/C(=O)Nc2ccccc21; -2.22
CN(C)CCCNc1nccc(-c2c(-c3ccc(F)cc3)nn3cc(C(F)(F)F)ccc23)n1; 0.9
COc1ccc2ncn(-c3cc(O[C@H](C)c4ccccc4Cl)c(C(N)=O)s3)c2c1; -1.28
CCN(CC)Cc1ccc(Nc2nccc(-c3cnn4ncccc34)n2)cc1; 8.4

// field: inhibition; key: "CCS(=O)(=O)c1ccc(OC)c(Nc2ncc(-c3ccccc3Cl)o2)c1" ; value = 1.22

// field: inhibition; key: "COc1cc2ncn(-c3cc(OCCc4ccccc4)c(C(N)=O)s3)c2cc1OC" ; value = 2.56

// field: inhibition; key: "NS(=O)(=O)c1ccc(Nc2cc(-c3ccc(O)c(F)c3)n[nH]2)cc1" ; value = -0.49

// field: inhibition; key: "CNC(=O)c1cncc(/C=C/c2c(C)cccc2C)c1" ; value = 45.7

// field: inhibition; key: "CN(C)c1ccc2c(c1)/C(=C/Nc1ccc(S(N)(=O)=O)cc1)C(=O)N2" ; value = 3.08

// field: inhibition; key: "Cc1ccc(C(=O)NC2CCC2)cc1-c1ccc(C(=O)NCC2CC2)cc1" ; value = 3.17

// field: inhibition; key: "COc1cccc(/C=N/Nc2ncnc3c2cnn3-c2cccc(OC)c2)c1" ; value = 1.2

// field: inhibition; key: "CCc1nccc2c1nc(-c1nonc1N)n2CC" ; value = 1.5

// field: inhibition; key: "CN(C)CCOc1ccc(-c2cc(-c3ccc4c(c3)CCC4=NO)c(-c3ccncc3)o2)cc1" ; value = 1.37

// field: inhibition; key: "COc1ccc(C2=C(N3CCc4ccccc43)C(=O)NC2=O)cc1" ; value = 4.2

// field: inhibition; key: "Cc1ccc(NC(=O)c2ccoc2)cc1-c1ccc(C(=O)NCC2CC2)cc1" ; value = 0.82

// field: inhibition; key: "Fc1ccc(-c2ncn(CCCN3CCOCC3)c2-c2ccncc2)cc1" ; value = -0.14

// field: inhibition; key: "Clc1ccc(CNc2nccc(-c3cnn4ncccc34)n2)cc1" ; value = 0.64

// field: inhibition; key: "CCc1cccc(CC)c1/C=C/c1cncc(C(=O)NC)c1" ; value = 1.84

// field: inhibition; key: "COc1cc(Nc2ncc3c(C)nc(-c4cccc(Oc5ccccc5)c4)n3n2)cc(OC)c1OC" ; value = 2.97

// field: inhibition; key: "COc1cc2ncn(-c3cc(OCc4ccccc4C(F)(F)F)c(C(C)=O)s3)c2cc1OC" ; value = 3.47

// field: inhibition; key: "O=C(Nc1ccc(Oc2ccc3[nH]c(NC(=O)c4ccccc4)nc3c2)cc1)Nc1cc(C(F)(F)F)ccc1F" ; value = 27.5
